# credit: PubChem BioAssay AID2501

experiment: counter assay for TAg ATPase ADP read-out – biochemical, ADP-Hunter, fluorescence, counter-screen (AID 2501); settings: series mostly up to 100 µM;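 further: purified T antigen ATPase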
In all, about 2,200 compounds went through this assay and about 1,200 (55%) were called active. Cut-off not given; nearly all actives show IC50 up to about 92 µM. The set was probably picked from earlier hits. Some of the results follow.
Classes used: active, inactive

# molecule, classification
records = [
    ("Oc1ccc(/C=N/Nc2cc(N3CCOCC3)nc(N3CCOCC3)n2)cc1O", "active"),
    ("COc1cc(/C=N/NC(=O)c2cc(C3CC3)[nH]n2)ccc1O", "active"),
    ("CCCCC/C=C\\C/C=C\\C/C=C\\C/C=C\\CCCC(=O)O", "inactive"),
    ("N#C/C(C(=O)Nc1ccc(Cl)cc1)=C(/S)Nc1ccccc1", "active"),
    ("Nc1nc[nH]c(=O)c1N=Cc1ccccc1", "active"),
    ("COc1cc(/C=N/NC(=O)c2nnn(-c3nonc3N)c2-c2cccs2)ccc1O", "active"),
    ("Cc1cc(C)n2nc(C(=O)N/N=C/c3ccc(O)cc3)nc2n1", "active"),
    ("O=c1cc(CN2CCN(Cc3ccc(F)cc3)C(CCO)C2)[nH]c2ccccc12 (centres undefined)", "inactive"),
    ("CC(=O)Oc1c(/C=C(\\C#N)C(N)=O)[nH]c2ccccc12", "active"),
    ("CCC(C)[C@H](N)c1nnc(SCC(=O)Nc2cccc(Cl)c2)o1 (some centres undefined)", "inactive"),
    ("CN(C)c1ccc(/C=C/c2cc[n+]([O-])cc2)cc1", "active"),
    ("CCOc1ccc(CN2CCN(Cc3cccc4c3OCO4)CC2CCO)cc1 (centres undefined)", "active"),
    ("Oc1ccc(N=Cc2ccc(O)c(O)c2)cc1", "active"),
    ("CCCn1cnc2cc(NCc3cccc(OC)c3O)ccc21", "active"),
    ("Cc1cc(N/N=C/c2ccc(O)cc2O)nc(N2CCOCC2)n1", "active"),
    ("C=C(CC)C(=O)c1ccc(OCC(=O)O)c(Cl)c1Cl", "inactive"),
    ("O=C1CCCC/C1=C\\Nc1ccc(O)cc1", "active"),
    ("N#CC(C#N)=C(N)/C(C#N)=C/c1cc(O)c(O)c(O)c1", "active"),
    ("C#CCOCCOCCOCCNc1nc(N2CCN(C(=O)CCCCCCCCCCNC(=O)[C@H](CCCN=C(N)N)n3cc(C[C@@H](C)CC)nn3)CC2)nc(N2CCN(C(=O)CCCCCCCCCCNC(=O)[C@@H]([C@H](C)CC)n3cc(CCCCCN)nn3)CC2)n1", "inactive"),
    ("Cc1c(C(=O)Oc2ccc(-c3cnc4ccccc4n3)cc2)cccc1[N+](=O)[O-]", "inactive"),
    ("CCC(=Nc1ccccc1O)C1=C(O)CC(c2ccccc2)CC1=O (centres undefined)", "active"),
    ("Oc1cc2c(cc1O)C1c3ccc(O)c(O)c3OCC1(O)C2 (centres undefined)", "inactive"),
    ("CCCCCCNC(=O)N[C@H](C(=O)NCCC[C@H]1CN2C(=NC[C@H]2C)N1CCC(c1ccccc1)c1ccccc1)C(C)O (some centres undefined)", "inactive"),
    ("CCOC(CNC(=O)C1CCN(S(=O)(=O)c2ccc3nc4c(c(C(=O)O)c3c2)CCCCC4)CC1)OCC", "inactive"),
    ("Cc1ccc(-c2nc(CN(Cc3cnn(C)c3)C(C)C)c(C)o2)o1", "inactive"),
    ("Clc1ccccc1CSc1nnc(-c2ccco2)c(-c2ccco2)n1", "inactive"),
    ("C=CCNc1nnc(SC2CC(=O)N(c3ccc(OC)cc3)C2=O)s1 (centres undefined)", "active"),
    ("O=C1OC(c2ccc(Cl)cc2)=N/C1=C\\C=C\\c1ccco1", "inactive"),
    ("COc1cccc(CC2(CO)CCCN(Cc3sc(N4CCCC4)nc3Cl)C2)c1 (centres undefined)", "inactive"),
    ("Cc1cc(O)ccc1N/C=C1\\CCCC1=O", "active"),
    ("Oc1ccc(/C=N/Nc2cc(N3CCCC3)nc(N3CCCC3)n2)cc1O", "active"),
    ("Oc1ccc(/C=N/N=C/c2ccc(O)c(O)c2)cc1O", "active"),
    ("CCOC(=O)N1CCC(NC(=O)c2cnn3c2NC(c2ccco2)CC3C(F)(F)F)CC1 (centres undefined)", "inactive"),
    ("CCC(C)NC(=O)CC(c1ccccc1)c1cc(C)ccc1O (centres undefined)", "inactive"),
    ("COc1cc(O)c(C(C)=O)c(CC(=O)O)c1", "inactive"),
    ("CCn1cnc2cc(NCc3cccc(OC)c3O)ccc21", "active"),
    ("CCN(CC)c1ccc(NC(=O)CSc2nnc(N)s2)cc1C", "active"),
    ("CCn1c(SCC(=O)Nc2cccc(C(C)=O)c2)nnc1C(C)C", "inactive"),
    ("COC(=O)CCC(=O)OC1(C)C(=O)C2=COC(c3ccc(OC)cc3)=CC2=C(Br)C1=O (centres undefined)", "inactive"),
    ("CCOc1cc(/C=C/c2cc(C(F)(F)F)[nH]c(=O)n2)ccc1O", "active"),
    ("O=C1/C(=C/c2ccncc2)SC(=S)N1Nc1ccccc1", "active"),
    ("O=C1NC(C(=O)O)=CC(c2ccc([N+](=O)[O-])cc2)N1 (centres undefined)", "inactive"),
    ("O=C(CCN1C(=O)/C(=C/c2ccco2)SC1=S)Nc1ccc(C(=O)O)c(O)c1", "inactive"),
    ("Cn1ncc2nnn(-c3ccccc3)c(=O)c21", "inactive"),
]

* * *

assay: counter assay for TAg ATPase ADP read-out – biochemical, ADP-Hunter, fluorescence, counter-screen (AID 2501); settings: series mostly up to 100 µM;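 further: purified T antigen ATPase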
Screen size: about 2,200 compounds; about 1,200 (55%) were called active. No cut-off is given here; in the data, nearly all actives have IC50 up to about 92 µM. So high a share suggests a set chosen from earlier hits. Some of the results follow.
Classes used: active, inactive

# molecule, classification
measured = [
    ("COc1cc(/C=C(\\C#N)C(=O)c2ccc(O)c(O)c2)cc(I)c1O", "active"),
    ("COc1ccc(NC2CCCN(C(=O)c3c(C)noc3C)C2)cc1 (stereo unspecified)", "active"),
    ("O=C(COC(=O)COc1cccc(C(F)(F)F)c1)NC1CCCC1", "inactive"),
    ("Cc1cc2ccccc2n1CCNC(=O)COc1ccc2ccccc2c1", "inactive"),
    ("CCOC(=O)C[n+]1c(C)sc2ccc(OC)cc21", "inactive"),
    ("COc1ccc(NS(=O)(=O)c2ccc3c(c2)[C@H]2C=CC[C@H]2[C@@H](c2ccc(C(=O)O)cc2)N3)cc1", "inactive"),
    ("COc1ccc(S(=O)(=O)N2CCC(NC(=O)c3ccccc3)CC2)cc1", "inactive"),
    ("COc1ccc(NC(=O)N2CCCC(C(=O)Nc3cccc(C)c3C)C2)cc1 (stereo unspecified)", "inactive"),
    ("Cc1cc(OCC(=O)N2CCN(c3ccc(F)cc3)CC2)c2c(C)cc(=O)oc2c1", "inactive"),
    ("CCCN1CCN(C(=O)c2cc(COc3ccc4ncccc4c3)on2)CC1", "inactive"),
    ("CCOC(=O)N1CCN(C(=O)c2ccc3c(SCC(=O)O)c4c(nc3c2)CCCC4)CC1", "inactive"),
    ("O=C(O)c1cccc(S(=O)(=O)Nc2ccc3oc(=O)sc3c2)c1", "inactive"),
    ("Cc1ccc(-n2nnnc2C(Cl)(Cl)c2nnnn2-c2ccc(C)cc2)cc1", "inactive"),
    ("Nc1c(/C=C2/C=CC(=O)C(O)=C2)c(=O)nc2sc(CC(=O)N3CCCCC3)nn12", "active"),
    ("N#Cc1c(N2CCCCC2)nc(N)c2c(N)nc(SCC(=O)O)cc12", "inactive"),
    ("C[C@H](CCC(=O)O)[C@H]1CC[C@H]2[C@@H]3CC[C@@H]4C[C@H](O)CC[C@]4(C)[C@H]3CC[C@]12C", "inactive"),
    ("N#C/C(=C\\c1ccc(O)c(O)c1)C(=O)c1ccc(O)c(O)c1", "active"),
    ("COC1=C(Nc2ccc(O)cc2)C(=O)c2ccccc2C1=O", "active"),
    ("Nc1c(/C=C2/C=CC(=O)C(O)=C2)c(=O)nc2sc(CC(=O)N3CCCC3)nn12", "active"),
    ("CCOC(=O)Cn1c(=O)oc2cc(S(=O)(=O)NCCC(C)C)ccc21", "inactive"),
    ("Cc1cccc(-n2c3nc(=O)[nH]c(=O)c-3cc3cc([N+](=O)[O-])ccc32)c1", "inactive"),
]

* * *

test: counter assay for TAg ATPase ADP read-out – biochemical, ADP-Hunter, fluorescence, counter-screen (AID 2501); conditions: series mostly up to 100 µM;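 further: purified T antigen ATPase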
The campaign covered roughly 2,200 compounds. About 1,200 (55%) were called active. No cut-off is given here; in the data, nearly all actives have IC50 up to about 92 µM. So high a share suggests a set chosen from earlier hits. Some of the results follow.
Labels: t (active), f (inactive)

# compound, classification
records = [
    ("COc1cc(OC)c(-c2c3cc(O)c(=O)cc-3oc3cc(O)c(O)cc23)cc1OC", "t"),
    ("Oc1ccc(/C=N/N2CCN(c3ccccn3)CC2)cc1", "t"),
    ("COc1cc(/C=N/N(C)C)cc(Br)c1O", "t"),
    ("c1ccc(-c2csc(NNC3=NCCCCC3)n2)cc1", "t"),
    ("COc1cc(/C=N/N2C(=O)CSC2=S)cc(Br)c1O", "t"),
    ("COc1ccccc1N1CCN(/N=C/c2ccc(O)c(O)c2)CC1", "t"),
    ("CC(OC(=O)c1ccccc1C(=O)N(C)c1ccccc1)C(=O)Nc1ccc(C(N)=O)cc1 (centres undefined)", "f"),
    ("CN(C)c1ccc(NC(=O)c2ccc3nc[nH]c3c2)cc1", "t"),
    ("O=S(=O)(NC1=NCCCCC1)c1ccc2sc(NS(=O)(=O)c3ccc4ccccc4c3)nc2c1", "f"),
    ("O=C1CSC(=S)N1/N=C/c1ccc(O)c([N+](=O)[O-])c1", "f"),
    ("O=C(CSc1nc2ccccc2c(=O)[nH]1)c1ccc(O)c(O)c1", "t"),
    ("Cn1cccc1/C=N/N1CCN(c2ccccn2)CC1", "t"),
    ("COc1cc(C(=O)Nc2ccc(N(C)C)cc2)cc(OC)c1OC", "t"),
    ("CCN=c1scc(C)n1/N=C/c1cc(Br)c(O)c(OC)c1", "t"),
    ("CCCn1c(=O)c2ccccc2n2c(=S)[nH]nc12", "t"),
    ("CN(C)c1ccc(NC(=O)c2cccc(N3C(=O)CCC3=O)c2)cc1", "t"),
    ("CC(C)Oc1ccc(C(=O)Nc2ccc(N(C)C)cc2)cc1", "t"),
    ("CCCCn1c(=O)c2ccccc2n2c(=S)[nH]nc12", "t"),
    ("COc1c(F)c(F)c(C(=O)O)c(Nc2ccc(C)cc2)c1F", "f"),
    ("COc1ccc(-c2csc(NNC3=NCCCCC3)n2)cc1", "t"),
    ("O=C(CSc1n[nH]c(-c2ccccc2)n1)c1ccc(O)c(O)c1", "t"),
    ("CCCn1c(SC(C)C(=O)O)nc2ccccc21 (centres undefined)", "f"),
    ("COc1ccc(CC(O)COS(N)(=O)=O)cc1 (centres undefined)", "f"),
    ("COc1cccc(/C=N/N2CCN(c3ccncc3S(=O)(=O)N3CCCCC3)CC2)c1", "f"),
]
